Experiment: Pharmacokinetic evaluation in cynomolgus monkeys, intragastric administration, plasma LC/MS/MS
Type: in vivo
Settings: both sexes, cynomolgus monkey, po, i.g., 2.0 mg/kg, read-out: Plasma concentration Cmax
Observable: Cmax (ng/mL)
Answers are plain numbers, in ng/mL.

Fill in: Cmax of N#Cc1ccc(O[C@H]2CC[C@H](NC(=O)c3ccc(N4CCC(CN5CCN(c6cc7c(cc6F)C(=O)N(C6CCC(=O)NC6=O)C7=O)CC5)CC4)nn3)CC2)cc1Cl (stereo partly shown) is ___
15.9

---

Assay: Long-term/accelerated stability study (sealed in aluminum foil bags)
Assay type: physicochemical
Conditions: 25 °C/60% RH, 1 month
Where a name gives a salt, the structure may show the parent alone.
Observable: Purity (%)
One number for each entry, in %.

Field: Purity (%). Fill in for each record below.
1. C[C@H]1CC2(CCN(c3ccc(C(=O)N4CCC(CN5CCN(c6cccc(N[C@H]7CCC(=O)NC7=O)c6)CC5)CC4)cc3F)CC2)CN1c1ccc(C#N)c(Cl)c1 [Amorphous form of maleate]
2. C[C@H]1CC2(CCN(c3ccc(C(=O)N4CCC(CN5CCN(c6cccc(N[C@H]7CCC(=O)NC7=O)c6)CC5)CC4)cc3F)CC2)CN1c1ccc(C#N)c(Cl)c1 [Crystal form B of succinate]
3. C[C@H]1CC2(CCN(c3ccc(C(=O)N4CCC(CN5CCN(c6cccc(N[C@H]7CCC(=O)NC7=O)c6)CC5)CC4)cc3F)CC2)CN1c1ccc(C#N)c(Cl)c1 [Amorphous form]
4. C[C@H]1CC2(CCN(c3ccc(C(=O)N4CCC(CN5CCN(c6cccc(N[C@H]7CCC(=O)NC7=O)c6)CC5)CC4)cc3F)CC2)CN1c1ccc(C#N)c(Cl)c1 [Crystal form A of mandelate]

98.9
98.5
98.7
99.4
